- System: recombinant Amaranthus tuberculatus PPO2 G399A
- Type: biochemical
Parameter Measured: Resistance factor G399A (IC50 mutant / IC50 sensitive PPO2)

Compound	Observed
O=C(O)c1cc(Oc2ccc(C(F)(F)F)cc2Cl)ccc1[N+](=O)[O-]	>541
C#CCN1C(=O)COc2cc(F)c(N3C(=O)C4=C(CCCC4)C3=O)cc21	868
CCOC(=O)C(C)OC(=O)c1cc(Oc2ccc(C(F)(F)F)cc2Cl)ccc1[N+](=O)[O-] (centres unmarked)	28167
Cc1nn(-c2cc(CC(Cl)C(=O)O)c(Cl)cc2F)c(=O)n1C(F)F (centres unmarked)	116
COC(=O)CSc1cc(/N=c2\sc(=O)n3n2CCCC3)c(F)cc1Cl	3567
